src = ChEMBL document CHEMBL5058564

- Tested on: Fibroblast
- protocol: Incucyte cell viability with human fibroblast; also: unitless GR value; below 1 slowed growth and below 0 cell loss
- Format: toxicity, cell-based
- condition-label: 6 h, 10 µM, compound concentration 10 uM, replicate number 1, timepoint 6 hours
We label by threshold. Values of Growth Rate strictly beneath 0.1 are yes (1). Values of 0.1 and up are no (0).

CN(C)CCN(Cc1ccc(-c2ccc(CNCCc3ccccc3)cc2)cc1)C(=O)CCC1CCCC1.Cl.Cl = yes (1)
CCOC(=O)Nc1cc(-c2ccc(C)c(NS(C)(=O)=O)c2)nn2c(C)nnc12 = yes (1)
N#Cc1cc(F)cc(-c2nc(-c3ccc(F)cn3)no2)c1 = yes (1)
O=C(O)CCC/C=C\C[C@H]1C(=O)C[C@@H](O)[C@@H]1/C=C/[C@@H](O)CCc1ccccc1 = yes (1)
c1cc(OCCCN2CCCCC2)ccc1CN1CCCCC1 = no (0)
Cc1cc(C)cc([C@H]2c3cc(C)ccc3NC(=O)CN2C(=O)c2ccc(Br)s2)c1 = yes (1)
Nc1nc(-c2ccco2)c2cnn(Cc3ccccc3F)c2n1 = yes (1)
Cn1cnc(-c2cc3nccc(Oc4ccc(NC(=S)NC(=O)Cc5ccccc5)cc4F)c3s2)c1 = no (0)

-- ask Threshold test, Growth Rate < 0.1: "O=C(O)COc1cccc(-c2ocnc2-c2nc(-c3ccccc3)c(-c3ccccc3)o2)c1"
-- reply no (0)

-- ask Threshold test, Growth Rate < 0.1: "CC(C)OC(=O)N1CCC(Oc2ncnc3c2cnn3-c2ccc(S(C)(=O)=O)cc2F)CC1"
-- reply no (0)

-- ask Threshold test, Growth Rate < 0.1: COCCCN1CCC(NC(=O)c2cc(Cl)c(N)c3c2OCC3)CC1 [PRUCALOPRIDE]
-- reply no (0)

-- ask Threshold test, Growth Rate < 0.1: "O=C(Nc1cc(-c2ccccc2)nn1-c1ccccc1F)c1ccc([N+](=O)[O-])cc1"
-- reply yes (1)

-- ask Threshold test, Growth Rate < 0.1: "Cc1cc(OCCCS(C)(=O)=O)cc(C)c1-c1cccc(COc2ccc3c(c2)OC[C@H]3CC(=O)O)c1"
-- reply yes (1)
